Tested on: HOP-92
EXPERIMENT SUMMARY: NCI tumour cell line growth inhibition, 48 h
The source made the active and inactive calls. No stated cut-off is given here; in the data, active = GI50 up to about 1.1 µM and inactive = higher.
Hi! Could you answer with just one of these? t = active, f = inactive

Examples with answers:
| COMPOUND | ASSIGNED LABEL |
| --- | --- |
| O=C1OC(c2ccccc2)=N/C1=C\c1ccc(Oc2ccc(Cl)c(Cl)c2)cc1 | f |
| COC(=N)C1(C#N)NC(c2ccsc2)C(C#N)(C#N)NC1c1ccsc1 (stereo not given) | f |
| COc1ccc(OC)c(SC(CC(=O)c2ccccc2)c2ccccc2)c1 (stereo not given) | f |

stdin: How was `COc1ccc(N(C)Sc2ccccc2)cc1` classified in this test?
stdout: f

stdin: How was CN/C=C(/c1ccc(OC)cc1)C(O)c1ccc(OC)c(OC)c1 (stereo not given) classified in this test?
stdout: f

stdin: How was O=C(NCc1cccnc1)C1COc2cc(-c3cc(=O)c4ccccc4o3)ccc2O1 (stereo not given) classified in this test?
stdout: f

stdin: How was C=CCC(O[Si](C)(C)C(C)(C)C)c1cc(O[Si](C)(C)C(C)(C)C)ccc1OC (stereo not given) classified in this test?
stdout: f

stdin: How was CC1(c2ccccc2)CC12C(=O)NC(=O)NC2=O (stereo not given) classified in this test?
stdout: f

stdin: How was `CN(O)C(=O)Cc1ccc(OCc2cccc(Cl)c2)cc1` classified in this test?
stdout: f

stdin: How was `CCOC(=O)c1ccc(NC(=O)Oc2ccc3c(C)cc(=O)oc3c2)cc1` classified in this test?
stdout: f

stdin: How was `CCCCn1c2c(n(CCCC)c1=S)-c1c(n(CCCC)c(=S)n1CCCC)S[Se][Se]S2` classified in this test?
stdout: t

stdin: How was `c1ccc(CC2(c3cc4ccccc4[nH]3)OCCO2)nc1` classified in this test?
stdout: f

Reference for the values: ChEMBL document CHEMBL1201862
